Test system: LXRa homodimer (NR concentration 270 nM)
Test: PBM binding z-score (relative to random genomic background probes); higher = stronger binding; sequences stand for … in GC…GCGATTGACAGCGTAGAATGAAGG
Output schema: class label derived from PBM binding z-score. Mapping: low band: < 0.4; middle band: ≥ 0.4 and < 2; high band: ≥ 2

Chain sequence	Tested system	Class label
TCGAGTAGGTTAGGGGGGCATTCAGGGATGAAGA	LXRa homodimer (NR concentration 270 nM)	middle band
CAAAATAGGTCAAGAGGTCAAAGTCCGCTTCCCG	LXRa homodimer (NR concentration 270 nM)	high band
CCGACGGGGGCAAGGTTACCATAACGCACAGCCA	LXRa homodimer (NR concentration 270 nM)	low band
CGTCCAAGGTCAAGGTCACTGAAAGAGACTCGAA	LXRa homodimer (NR concentration 270 nM)	high band
TAGCCTAGGTCATTCAGGCGCCAGTATAGAAAGC	LXRa homodimer (NR concentration 270 nM)	middle band

query: // bin(item) where item = `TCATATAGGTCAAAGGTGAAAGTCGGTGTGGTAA`
result: high band

query: // bin(item) where item = `TCGAGTAAGTTACGGGGGCATTCAGGGATGAAGA`
result: middle band

query: // bin(item) where item = `CGAACTAGGTCACCAAGACAGTGAAGAGGTTGGA`
result: low band

query: // bin(item) where item = `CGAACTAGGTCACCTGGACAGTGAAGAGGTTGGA`
result: low band

query: // bin(item) where item = `ACTAGTAGGTCAGCTGAGGTCACACACAATTCGG`
result: high band

====

The reader will find reported PBM binding z-score values listed item by item below.
Tested on: PPARg homodimer (NR concentration 180 nM)
Assay: PBM binding z-score (relative to random genomic background probes); higher = stronger binding; sequences stand for … in GC…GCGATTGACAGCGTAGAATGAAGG

Worked examples, 6 sequences total:
Chain sequence	Tested system	PBM binding z-score
GATACAGGGTGAGCTAGAGGCCAGAGTATGGAAA	PPARg homodimer (NR concentration 180 nM)	-0.261
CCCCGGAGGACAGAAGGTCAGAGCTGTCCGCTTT	PPARg homodimer (NR concentration 180 nM)	1.56
TCGAGTAGGTTACGGGGGCATTGAGGGATGAAGA	PPARg homodimer (NR concentration 180 nM)	2.89
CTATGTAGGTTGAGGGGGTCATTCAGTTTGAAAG	PPARg homodimer (NR concentration 180 nM)	3.25
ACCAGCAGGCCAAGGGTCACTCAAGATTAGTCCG	PPARg homodimer (NR concentration 180 nM)	2.32
CCTCGGAGGACAACAGGATGTCAGAGCTGCCAGA	PPARg homodimer (NR concentration 180 nM)	-0.00372

Would you kindly look at the next entry?
Lab note: sequence `CGCACTAGGTCATTGACAGGACAGTGAATAGTAA` tested on PPARg homodimer (NR concentration 180 nM); recorded PBM binding z-score was 2.42

====

The reader will find reported PBM binding z-score values listed item by item below.
Test system: THRa homodimer (NR concentration 90 nM)
Assay: PBM binding z-score (relative to random genomic background probes); higher = stronger binding; sequences stand for … in GC…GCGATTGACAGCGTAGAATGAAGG
# answer = number (no unit)

Chain sequence	PBM binding z-score
AGTAAAAGTTCACTAGGTAACGTAAGATTCAGCT	0.341
GCTGCAAGGTCAACTGATGGTCAGCTAAAGCTCG	2.31
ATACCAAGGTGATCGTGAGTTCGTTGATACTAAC	0.74
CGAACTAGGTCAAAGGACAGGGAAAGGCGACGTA	0.631

Would you kindly look at the next entry?
Form field PBM binding z-score, entry `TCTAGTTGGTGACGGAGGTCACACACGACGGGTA` : 2.23

====

System: PXR:RXRa (NR concentration 270 nM, RXRa partner concentration 90 nM)
Experiment: PBM binding z-score (relative to random genomic background probes); higher = stronger binding; sequences stand for … in GC…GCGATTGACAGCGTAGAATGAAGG
The reader will find reported PBM binding z-score values listed item by item below.
# answer = number (no unit)

Chain sequence	PBM binding z-score
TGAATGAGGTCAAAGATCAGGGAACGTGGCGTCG	5.41

Form field PBM binding z-score, entry `CTATGTAGTTTAAGGGGGTCATTCAGTTTGAAAG` : 5.93

Form field PBM binding z-score, entry `CCTAGCAGACCAATCTGGGTCACTCAAGGCTTGA` : 0.638

Form field PBM binding z-score, entry `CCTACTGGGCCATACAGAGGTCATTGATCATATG` : 5.28

====

Test system: THRa:RXRa (NR concentration 90 nM, RXRa partner concentration 90 nM)
Test: PBM binding z-score (relative to random genomic background probes); higher = stronger binding; sequences stand for … in GC…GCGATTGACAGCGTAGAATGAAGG
Tick condition met if PBM binding z-score is 4 or greater. Tick condition not met if PBM binding z-score is less than 4.

Chain sequence	Class label
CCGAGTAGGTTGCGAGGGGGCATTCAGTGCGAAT	condition not met
CGTCCAAGGTCAGCAGGTGAGTGAAAGCGACGTG	condition not met
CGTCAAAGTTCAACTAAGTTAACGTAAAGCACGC	condition met

query: Check this sequence for PBM binding z-score at or above 4: `CCAACTAGGTCATTGACAGGACAGTGAATAGTAA`
result: condition not met

query: Check this sequence for PBM binding z-score at or above 4: `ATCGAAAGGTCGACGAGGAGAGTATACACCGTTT`
result: condition not met

====

Test system: RARa:RXR (NR concentration 270 nM, RXRa partner concentration 90 nM)
Assay: PBM binding z-score (relative to random genomic background probes); higher = stronger binding; sequences stand for … in GC…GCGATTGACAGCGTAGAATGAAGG
Attribute measured: PBM binding z-score
# answer = number (no unit)

Chain sequence	PBM binding z-score
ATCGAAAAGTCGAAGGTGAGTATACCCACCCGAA	0.357
CGAACTAGGTCGAAGGACAGTGAAAGGCGACGTA	-0.0163
TATACAGGATCAAAGGCCAGAGTACGAATGTCGA	0.0923
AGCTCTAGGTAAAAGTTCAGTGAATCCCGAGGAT	1.55

Lab note: sequence `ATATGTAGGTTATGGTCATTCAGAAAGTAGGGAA` tested on RARa:RXR (NR concentration 270 nM, RXRa partner concentration 90 nM); recorded PBM binding z-score was 1.17

Lab note: sequence `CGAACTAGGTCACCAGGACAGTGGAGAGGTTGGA` tested on RARa:RXR (NR concentration 270 nM, RXRa partner concentration 90 nM); recorded PBM binding z-score was 2.81

====

Tested on: VDR homodimer (NR concentration 270 nM)
Experiment: PBM binding z-score (relative to random genomic background probes); higher = stronger binding; sequences stand for … in GC…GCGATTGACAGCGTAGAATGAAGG
Tick Condition met if PBM binding z-score is 0.5 or greater. Tick Condition not met if PBM binding z-score is less than 0.5.

These solved cases illustrate the format of a correct answer.
Chain sequence	Class label
CGAAGTAGGTCAAAGGACAGTGAAAGGCGACGTA	Condition not met
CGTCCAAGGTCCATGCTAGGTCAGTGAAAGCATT	Condition met

query: Check this sequence for PBM binding z-score at or above 0.5: `CGAACTAGCTCAAAGGACAGTGAAAGGCGACGTA`
result: Condition not met

query: Check this sequence for PBM binding z-score at or above 0.5: `TCGAGTAGGTTACGGGAGCATTCAGGGATGAAGA`
result: Condition not met

query: Check this sequence for PBM binding z-score at or above 0.5: `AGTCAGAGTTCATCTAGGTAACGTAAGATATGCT`
result: Condition met

query: Check this sequence for PBM binding z-score at or above 0.5: `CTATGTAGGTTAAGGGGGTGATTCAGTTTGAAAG`
result: Condition met

query: Check this sequence for PBM binding z-score at or above 0.5: `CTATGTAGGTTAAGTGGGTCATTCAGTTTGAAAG`
result: Condition met

query: Check this sequence for PBM binding z-score at or above 0.5: `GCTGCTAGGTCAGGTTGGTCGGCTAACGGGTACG`
result: Condition not met

query: Check this sequence for PBM binding z-score at or above 0.5: `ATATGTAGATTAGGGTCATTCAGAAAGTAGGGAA`
result: Condition met

query: Check this sequence for PBM binding z-score at or above 0.5: `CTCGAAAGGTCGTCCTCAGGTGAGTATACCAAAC`
result: Condition met

query: Check this sequence for PBM binding z-score at or above 0.5: `AGATGTAGGTTAGGGTCATTCAGAAAGTAGGGAA`
result: Condition met

query: Check this sequence for PBM binding z-score at or above 0.5: `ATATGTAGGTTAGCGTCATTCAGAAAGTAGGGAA`
result: Condition not met

query: Check this sequence for PBM binding z-score at or above 0.5: `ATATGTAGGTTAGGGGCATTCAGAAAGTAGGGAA`
result: Condition met

query: Check this sequence for PBM binding z-score at or above 0.5: `CCTTACGGGTCAGTGACAGGTTATAGCATTTGGA`
result: Condition met

query: Check this sequence for PBM binding z-score at or above 0.5: `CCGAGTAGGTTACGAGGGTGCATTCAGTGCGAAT`
result: Condition met

query: Check this sequence for PBM binding z-score at or above 0.5: `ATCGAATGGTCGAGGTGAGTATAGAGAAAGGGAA`
result: Condition not met
